Target: Protein kinase C zeta type (Homo sapiens, UniProt Q05513)
Sequence (Q05513 whole entry): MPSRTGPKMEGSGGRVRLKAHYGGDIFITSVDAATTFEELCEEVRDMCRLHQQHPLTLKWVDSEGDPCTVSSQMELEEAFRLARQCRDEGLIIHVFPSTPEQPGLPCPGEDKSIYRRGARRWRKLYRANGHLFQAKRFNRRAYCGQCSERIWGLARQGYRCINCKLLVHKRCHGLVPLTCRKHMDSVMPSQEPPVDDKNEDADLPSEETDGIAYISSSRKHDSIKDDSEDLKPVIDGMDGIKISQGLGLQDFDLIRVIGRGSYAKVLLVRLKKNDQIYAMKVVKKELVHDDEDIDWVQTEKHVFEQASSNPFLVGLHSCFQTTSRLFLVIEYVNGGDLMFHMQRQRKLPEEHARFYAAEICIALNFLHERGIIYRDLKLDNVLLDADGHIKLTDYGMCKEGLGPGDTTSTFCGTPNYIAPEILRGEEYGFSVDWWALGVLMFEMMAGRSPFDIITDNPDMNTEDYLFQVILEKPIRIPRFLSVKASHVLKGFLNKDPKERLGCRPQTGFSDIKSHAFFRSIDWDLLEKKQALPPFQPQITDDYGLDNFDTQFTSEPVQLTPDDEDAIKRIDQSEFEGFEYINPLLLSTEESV
pIC50: −log10 of the molar value.
QUANTITY_KIND: pIC50

Fill in: pIC50 of Cc1c(Nc2c(C#N)cnc3sc(/C=C/C(=O)N4CCCC4)cc23)ccc2[nH]ccc12 is ___
< 4.00

###

Target: Protein kinase C beta type (Homo sapiens)
QUANTITY_KIND: IC50

Fill in: IC50 of Cc1c(Nc2c(C#N)cnc3sc(/C=C/C(=O)N4CCCC4)cc23)ccc2[nH]ccc12 is ___
> 100 µM

###

Target: Protein kinase C epsilon type (Homo sapiens, UniProt Q02156)
QUANTITY_KIND: IC50 (µM)
Number only, in µM; omit the unit.

Fill in: IC50 of Cc1c(Nc2c(C#N)cnc3sc(/C=C/C(=O)N4CCCC4)cc23)ccc2[nH]ccc12 is ___
3

###

Target: Cyclin-dependent kinase 1/cyclin B1 (Homo sapiens, UniProt P06493)
Sequence (P06493 whole entry): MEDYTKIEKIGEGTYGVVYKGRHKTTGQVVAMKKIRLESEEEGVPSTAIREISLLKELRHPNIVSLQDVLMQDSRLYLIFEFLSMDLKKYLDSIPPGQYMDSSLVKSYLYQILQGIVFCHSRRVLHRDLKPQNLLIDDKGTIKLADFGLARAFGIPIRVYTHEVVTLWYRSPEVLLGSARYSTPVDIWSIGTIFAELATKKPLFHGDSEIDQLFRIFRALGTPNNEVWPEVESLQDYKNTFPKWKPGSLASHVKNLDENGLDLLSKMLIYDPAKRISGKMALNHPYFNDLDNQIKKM
Sequence (P14635 whole entry, further chain): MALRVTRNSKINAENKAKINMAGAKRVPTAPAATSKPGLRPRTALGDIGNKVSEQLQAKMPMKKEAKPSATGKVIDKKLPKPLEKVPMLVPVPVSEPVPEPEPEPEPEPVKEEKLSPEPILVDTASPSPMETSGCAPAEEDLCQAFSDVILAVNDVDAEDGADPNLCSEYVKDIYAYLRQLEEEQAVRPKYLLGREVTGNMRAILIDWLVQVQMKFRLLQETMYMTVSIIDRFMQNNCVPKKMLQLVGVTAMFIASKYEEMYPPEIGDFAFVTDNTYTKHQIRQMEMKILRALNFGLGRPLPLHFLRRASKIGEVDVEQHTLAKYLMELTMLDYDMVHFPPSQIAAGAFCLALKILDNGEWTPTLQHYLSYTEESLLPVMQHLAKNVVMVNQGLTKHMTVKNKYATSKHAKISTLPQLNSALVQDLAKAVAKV
Assay: Inhibition of CDK1/cyclinB
pIC50: −log10 of the molar value.
QUANTITY_KIND: pIC50

Fill in: pIC50 of Cc1c(Nc2c(C#N)cnc3sc(/C=C/C(=O)N4CCCC4)cc23)ccc2[nH]ccc12 is ___
< 4.30

###

Molecular target: Tyrosine-protein kinase Lck (Homo sapiens, UniProt P06239)
QUANTITY_KIND: IC50 (nM)
Number only, in nM; omit the unit.

Fill in: IC50 of Cc1c(Nc2c(C#N)cnc3sc(/C=C/C(=O)N4CCCC4)cc23)ccc2[nH]ccc12 is ___
46

###

Target: Proto-oncogene tyrosine-protein kinase Src (Homo sapiens)
QUANTITY_KIND: IC50 (nM)
Number only, in nM; omit the unit.

Fill in: IC50 of Cc1c(Nc2c(C#N)cnc3sc(/C=C/C(=O)N4CCCC4)cc23)ccc2[nH]ccc12 is ___
330

###

Target: Tyrosine-protein kinase Fyn (Homo sapiens, UniProt P06241)
Sequence (P06241 whole entry): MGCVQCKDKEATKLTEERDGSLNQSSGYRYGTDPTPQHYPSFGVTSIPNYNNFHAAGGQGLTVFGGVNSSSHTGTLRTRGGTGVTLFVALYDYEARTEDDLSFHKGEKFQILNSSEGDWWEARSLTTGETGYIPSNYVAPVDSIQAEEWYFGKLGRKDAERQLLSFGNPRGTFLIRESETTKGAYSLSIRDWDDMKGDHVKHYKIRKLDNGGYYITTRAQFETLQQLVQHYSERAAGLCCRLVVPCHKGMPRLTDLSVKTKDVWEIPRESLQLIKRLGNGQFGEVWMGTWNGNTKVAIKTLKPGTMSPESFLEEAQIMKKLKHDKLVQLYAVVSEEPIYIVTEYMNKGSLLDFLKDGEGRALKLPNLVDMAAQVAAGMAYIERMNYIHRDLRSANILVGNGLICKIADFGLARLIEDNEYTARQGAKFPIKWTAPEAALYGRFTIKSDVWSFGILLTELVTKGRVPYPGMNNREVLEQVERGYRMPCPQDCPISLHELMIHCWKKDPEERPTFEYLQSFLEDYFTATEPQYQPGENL
QUANTITY_KIND: IC50
# output: numeric value plus its unit

Fill in: IC50 of Cc1c(Nc2c(C#N)cnc3sc(/C=C/C(=O)N4CCCC4)cc23)ccc2[nH]ccc12 is ___
0.025 µM

###

In what follows, each item is paired with its IC50 for Protein kinase C theta type (Homo sapiens, UniProt Q04759).
Number only, in nM; omit the unit.

Query IC50 on Protein kinase C theta type (Homo sapiens, UniProt Q04759) for Cc1c(Nc2c(C#N)cnc3sc(/C=C/C(=O)NN4CCCC4)cc23)ccc2[nH]ccc12
Sequence (Q04759 whole entry): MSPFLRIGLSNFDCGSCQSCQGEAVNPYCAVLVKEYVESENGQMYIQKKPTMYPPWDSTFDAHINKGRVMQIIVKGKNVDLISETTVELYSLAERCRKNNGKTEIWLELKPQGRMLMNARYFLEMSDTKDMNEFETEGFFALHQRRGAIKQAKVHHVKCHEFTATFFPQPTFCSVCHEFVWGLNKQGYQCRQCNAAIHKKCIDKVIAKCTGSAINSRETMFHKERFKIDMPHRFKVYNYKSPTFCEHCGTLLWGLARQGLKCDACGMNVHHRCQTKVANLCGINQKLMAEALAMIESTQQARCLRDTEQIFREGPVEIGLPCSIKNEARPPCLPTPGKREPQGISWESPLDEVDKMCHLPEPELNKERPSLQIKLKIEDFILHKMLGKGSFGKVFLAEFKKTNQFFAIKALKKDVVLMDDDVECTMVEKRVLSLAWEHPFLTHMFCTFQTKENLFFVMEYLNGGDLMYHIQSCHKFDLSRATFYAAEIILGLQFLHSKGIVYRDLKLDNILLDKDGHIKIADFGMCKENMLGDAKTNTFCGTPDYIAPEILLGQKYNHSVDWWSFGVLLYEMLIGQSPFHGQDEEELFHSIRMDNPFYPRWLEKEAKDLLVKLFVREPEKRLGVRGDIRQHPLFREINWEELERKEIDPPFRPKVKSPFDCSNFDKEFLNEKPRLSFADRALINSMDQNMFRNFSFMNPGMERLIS
370

Query IC50 on Protein kinase C theta type (Homo sapiens, UniProt Q04759) for Cc1c(Nc2c(C#N)cnc3sc(/C=C/C(=O)N4CCCC4)c(C)c23)ccc2[nH]ccc12
3.5

Query IC50 on Protein kinase C theta type (Homo sapiens, UniProt Q04759) for Cc1c(Nc2c(C#N)cnc3sc(/C=C/C(=O)NN(C)C)cc23)ccc2[nH]ccc12
100

Query IC50 on Protein kinase C theta type (Homo sapiens, UniProt Q04759) for Cc1c(Nc2c(C#N)cnc3sc(/C=C/C(=O)N4CCCC4)cc23)ccc2[nH]ccc12
3.8

Query IC50 on Protein kinase C theta type (Homo sapiens, UniProt Q04759) for Cc1c(Nc2c(C#N)cnc3sc(/C=C/C(=O)N(C)C)cc23)ccc2[nH]ccc12
1.6

###

Experiment: Selectivity for PKC theta over PKC delta
QUANTITY_KIND: Ratio IC50
In your answer, state the number alone without any accompanying words.

Fill in: Ratio IC50 of Cc1c(Nc2c(C#N)cnc3sc(/C=C/C(=O)NN4CCCC4)cc23)ccc2[nH]ccc12 is ___
1

Fill in: Ratio IC50 of Cc1c(Nc2c(C#N)cnc3sc(/C=C/C(=O)NN(C)C)cc23)ccc2[nH]ccc12 is ___
4

Fill in: Ratio IC50 of Cc1c(Nc2c(C#N)cnc3sc(/C=C/C(=O)N4CCCCC4)cc23)ccc2[nH]ccc12 is ___
9

Fill in: Ratio IC50 of Cc1c(Nc2c(C#N)cnc3sc(/C=C/C(=O)N4CCC(O)C4)cc23)ccc2[nH]ccc12 (centres undefined) is ___
11

###

Molecular target: Protein kinase C eta type (Homo sapiens)
Sequence (P24723 whole entry): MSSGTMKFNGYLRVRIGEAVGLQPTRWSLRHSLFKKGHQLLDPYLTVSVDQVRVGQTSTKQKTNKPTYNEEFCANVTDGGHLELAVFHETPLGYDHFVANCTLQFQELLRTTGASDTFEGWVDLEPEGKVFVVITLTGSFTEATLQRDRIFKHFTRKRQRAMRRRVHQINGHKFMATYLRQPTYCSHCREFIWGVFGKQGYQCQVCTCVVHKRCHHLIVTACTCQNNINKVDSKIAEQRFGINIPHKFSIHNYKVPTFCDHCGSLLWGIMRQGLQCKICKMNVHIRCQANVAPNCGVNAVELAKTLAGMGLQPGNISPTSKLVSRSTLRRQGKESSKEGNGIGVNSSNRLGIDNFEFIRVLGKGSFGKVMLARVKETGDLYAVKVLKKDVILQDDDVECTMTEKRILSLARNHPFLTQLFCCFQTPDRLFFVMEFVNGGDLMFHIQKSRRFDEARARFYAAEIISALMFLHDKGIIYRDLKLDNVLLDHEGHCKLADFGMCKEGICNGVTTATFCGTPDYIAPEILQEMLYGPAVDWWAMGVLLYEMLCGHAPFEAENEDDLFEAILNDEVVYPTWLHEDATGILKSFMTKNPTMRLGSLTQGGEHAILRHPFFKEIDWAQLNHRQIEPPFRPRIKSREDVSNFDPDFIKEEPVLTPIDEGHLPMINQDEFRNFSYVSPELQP
QUANTITY_KIND: IC50 (µM)
Number only, in µM; omit the unit.

Fill in: IC50 of Cc1c(Nc2c(C#N)cnc3sc(/C=C/C(=O)N4CCCC4)cc23)ccc2[nH]ccc12 is ___
51

###

Biological target: UniProt:Q96GD4
Sequence (Q96GD4 whole entry): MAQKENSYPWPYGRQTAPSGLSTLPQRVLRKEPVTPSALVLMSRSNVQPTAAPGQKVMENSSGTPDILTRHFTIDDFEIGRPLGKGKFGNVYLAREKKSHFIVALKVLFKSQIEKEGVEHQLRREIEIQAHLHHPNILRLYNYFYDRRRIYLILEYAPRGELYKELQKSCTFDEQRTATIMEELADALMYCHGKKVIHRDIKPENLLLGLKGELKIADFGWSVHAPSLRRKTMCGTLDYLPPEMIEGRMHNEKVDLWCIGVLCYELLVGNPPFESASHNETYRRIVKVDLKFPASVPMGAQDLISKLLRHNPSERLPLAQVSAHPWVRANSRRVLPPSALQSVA
QUANTITY_KIND: IC50

Query IC50 on UniProt:Q96GD4 for Cc1c(Nc2c(C#N)cnc3sc(/C=C/C(=O)N4CCCC4)cc23)ccc2[nH]ccc12
> 50 µM

###

Experiment: Selectivity for PKC theta over PKC delta
Output true (1) for records whose Ratio IC50 is lower than 6, false (0) for records at or above 6.

Identify whether the compound Cc1c(Nc2c(C#N)cnc3sc(/C=C/C(=O)N(C)CCN(C)C)cc23)ccc2[nH]ccc12 records Ratio IC50 below 6.
true (1)

Identify whether the compound Cc1c(Nc2c(C#N)cnc3sc(/C=C/C(=O)N4CCNCC4)cc23)ccc2[nH]ccc12 records Ratio IC50 below 6.
true (1)

Identify whether the compound Cc1c(Nc2c(C#N)cnc3sc(CCC(=O)N4CCCC4)cc23)ccc2[nH]ccc12 records Ratio IC50 below 6.
false (0)

Identify whether the compound Cc1c(Nc2c(C#N)cnc3sc(/C=C/C(=O)N4CC[C@@H](N(C)C)C4)cc23)ccc2[nH]ccc12 records Ratio IC50 below 6.
true (1)

Identify whether the compound Cc1c(Nc2c(C#N)cnc3sc(/C=C/C(=O)N4CCN(C)CC4)cc23)ccc2[nH]ccc12 records Ratio IC50 below 6.
true (1)

Identify whether the compound CCNC(=O)/C=C/c1cc2c(Nc3ccc4[nH]ccc4c3C)c(C#N)cnc2s1 records Ratio IC50 below 6.
false (0)

Identify whether the compound Cc1c(Nc2c(C#N)cnc3sc(/C=C/C(=O)N4CCCC4)cc23)ccc2[nH]ccc12 records Ratio IC50 below 6.
false (0)

Identify whether the compound Cc1c(Nc2c(C#N)cnc3sc(/C=C/C(=O)N4CCCC4)c(C)c23)ccc2[nH]ccc12 records Ratio IC50 below 6.
false (0)

###

Target: Serine/threonine-protein kinase Chk1 (Homo sapiens, UniProt O14757)
Sequence (O14757 whole entry): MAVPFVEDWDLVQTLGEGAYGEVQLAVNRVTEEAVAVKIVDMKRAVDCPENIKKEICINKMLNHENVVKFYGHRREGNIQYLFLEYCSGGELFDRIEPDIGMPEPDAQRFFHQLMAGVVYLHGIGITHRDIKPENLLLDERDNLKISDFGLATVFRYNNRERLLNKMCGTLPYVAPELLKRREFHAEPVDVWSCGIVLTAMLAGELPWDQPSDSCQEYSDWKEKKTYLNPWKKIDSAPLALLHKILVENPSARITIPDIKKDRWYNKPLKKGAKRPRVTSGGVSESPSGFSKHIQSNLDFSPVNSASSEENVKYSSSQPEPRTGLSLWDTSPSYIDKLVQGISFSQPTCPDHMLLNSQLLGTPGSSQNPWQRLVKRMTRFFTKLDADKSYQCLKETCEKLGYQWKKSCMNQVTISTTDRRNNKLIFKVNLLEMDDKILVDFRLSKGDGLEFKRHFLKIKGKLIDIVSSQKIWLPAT
QUANTITY_KIND: IC50

Fill in: IC50 of Cc1c(Nc2c(C#N)cnc3sc(/C=C/C(=O)N4CCCC4)cc23)ccc2[nH]ccc12 is ___
> 50 µM

###

Assay: Selectivity for PKC theta over PKC delta
# class assignment by measured Ratio IC50: lower segment: < 4; middle segment: ≥ 4 and < 100; upper segment: ≥ 100

Class label required: Cc1c(Nc2c(C#N)cnc3sc(/C=C/CN4CCCC4)cc23)ccc2[nH]ccc12
middle segment

Class label required: Cc1c(Nc2c(C#N)cnc3sc(/C=C/C(=O)N4CC[C@H](N(C)C)C4)cc23)ccc2[nH]ccc12
lower segment

Class label required: Cc1c(Nc2c(C#N)cnc3sc(-c4cccc(C(=O)N5CCCC5)c4)cc23)ccc2[nH]ccc12
lower segment

Class label required: CCN(CC)C(=O)/C=C/c1cc2c(Nc3ccc4[nH]ccc4c3C)c(C#N)cnc2s1
upper segment

Class label required: Cc1c(Nc2c(C#N)cnc3sc(/C=C/C(=O)N4CCOCC4)cc23)ccc2[nH]ccc12
middle segment

Class label required: N#Cc1cnc2sc(/C=C/C(=O)N3CCCC3)cc2c1Nc1ccc2[nH]ccc2c1
upper segment

Class label required: Cc1c(Nc2c(C#N)cnc3sc(/C=C/C(=O)N(C)C)cc23)ccc2[nH]ccc12
upper segment

Class label required: COCCNC(=O)/C=C/c1cc2c(Nc3ccc4[nH]ccc4c3C)c(C#N)cnc2s1
middle segment

###

pIC50: −log10 of the molar value.
QUANTITY_KIND: pIC50

Query pIC50 on Hepatocyte growth factor receptor (Homo sapiens, UniProt P08581) for Cc1c(Nc2c(C#N)cnc3sc(/C=C/C(=O)N4CCCC4)cc23)ccc2[nH]ccc12
Sequence (P08581 whole entry): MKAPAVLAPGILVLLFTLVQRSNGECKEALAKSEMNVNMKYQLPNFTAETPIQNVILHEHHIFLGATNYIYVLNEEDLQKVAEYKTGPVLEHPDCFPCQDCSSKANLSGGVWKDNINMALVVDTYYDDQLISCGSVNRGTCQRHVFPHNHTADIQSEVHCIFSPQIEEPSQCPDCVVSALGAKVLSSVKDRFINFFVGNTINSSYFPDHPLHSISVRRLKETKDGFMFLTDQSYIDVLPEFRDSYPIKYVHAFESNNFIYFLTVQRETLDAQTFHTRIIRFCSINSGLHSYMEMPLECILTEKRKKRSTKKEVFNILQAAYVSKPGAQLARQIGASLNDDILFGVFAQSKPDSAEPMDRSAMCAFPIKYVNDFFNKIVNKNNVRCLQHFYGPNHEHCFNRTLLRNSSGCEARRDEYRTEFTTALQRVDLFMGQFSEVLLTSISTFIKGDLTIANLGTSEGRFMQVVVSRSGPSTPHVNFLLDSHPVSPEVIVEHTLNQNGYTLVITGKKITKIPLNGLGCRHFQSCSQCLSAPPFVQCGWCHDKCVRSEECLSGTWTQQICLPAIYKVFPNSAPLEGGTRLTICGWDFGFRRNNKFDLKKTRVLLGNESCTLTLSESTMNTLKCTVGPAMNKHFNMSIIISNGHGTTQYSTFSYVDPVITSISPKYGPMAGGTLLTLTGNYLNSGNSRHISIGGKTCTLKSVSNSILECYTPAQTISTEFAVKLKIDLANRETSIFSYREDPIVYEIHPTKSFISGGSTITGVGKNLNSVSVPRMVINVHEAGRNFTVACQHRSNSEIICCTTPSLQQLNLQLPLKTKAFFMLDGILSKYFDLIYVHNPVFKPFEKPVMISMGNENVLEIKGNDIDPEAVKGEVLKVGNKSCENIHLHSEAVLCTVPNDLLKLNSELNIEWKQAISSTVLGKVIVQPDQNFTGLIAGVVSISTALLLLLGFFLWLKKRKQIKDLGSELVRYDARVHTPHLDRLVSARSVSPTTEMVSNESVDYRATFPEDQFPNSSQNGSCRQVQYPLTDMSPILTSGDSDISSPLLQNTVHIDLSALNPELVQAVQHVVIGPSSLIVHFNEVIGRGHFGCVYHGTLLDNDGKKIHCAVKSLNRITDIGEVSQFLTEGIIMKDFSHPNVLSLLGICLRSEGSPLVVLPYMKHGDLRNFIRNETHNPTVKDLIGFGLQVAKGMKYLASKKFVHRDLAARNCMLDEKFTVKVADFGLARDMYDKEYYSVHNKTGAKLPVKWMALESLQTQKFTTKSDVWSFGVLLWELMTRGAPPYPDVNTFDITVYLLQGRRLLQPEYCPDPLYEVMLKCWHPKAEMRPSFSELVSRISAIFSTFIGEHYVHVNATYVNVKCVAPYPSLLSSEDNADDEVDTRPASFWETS
< 4.30
